Just for reference, paper PMC4661536 is where these values come from.

Biological target: TAF15-RRM (Homo sapiens, UniProt Q92804 231-323)
Sequence (Q92804 231-323): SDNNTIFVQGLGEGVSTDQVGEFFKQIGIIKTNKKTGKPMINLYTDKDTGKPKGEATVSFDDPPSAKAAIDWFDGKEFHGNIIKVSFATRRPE
Test: ITC; N = 0.72; ITC: 10 mM HEPES pH 7.0, 20 mM Na2SO4 (+5 mM beta-mercaptoethanol for RRM-RanBP2 constructs), 298 K, 1 mM RNA into 100 uM protein. NMR: 20 mM Na phosphate pH 6.2, 25 mM NaCl, 5% D2O (RRM) or 25 mM Na2SO4, 5 mM beta-mercaptoethanol (TAF15-RRM-RanBP2), 298 K
Conditions: protein: recombinant; hairpin, 8 bp stem, 9 nt loop
Assay Metric: pKd
The meaning of pKd here: minus log10 of the concentration in molar units.

Form field pKd, entry CGUAUCUUUAACUACUCAAGAUACG (structured_RNA) [SON stem-loop RNA] : 5.00
